Each entry below carries its recorded IC50.
- tested system: RET G810R (Homo sapiens (Human), UniProt P07949, G810R)
- Sequence (P07949 29-1114 G810R): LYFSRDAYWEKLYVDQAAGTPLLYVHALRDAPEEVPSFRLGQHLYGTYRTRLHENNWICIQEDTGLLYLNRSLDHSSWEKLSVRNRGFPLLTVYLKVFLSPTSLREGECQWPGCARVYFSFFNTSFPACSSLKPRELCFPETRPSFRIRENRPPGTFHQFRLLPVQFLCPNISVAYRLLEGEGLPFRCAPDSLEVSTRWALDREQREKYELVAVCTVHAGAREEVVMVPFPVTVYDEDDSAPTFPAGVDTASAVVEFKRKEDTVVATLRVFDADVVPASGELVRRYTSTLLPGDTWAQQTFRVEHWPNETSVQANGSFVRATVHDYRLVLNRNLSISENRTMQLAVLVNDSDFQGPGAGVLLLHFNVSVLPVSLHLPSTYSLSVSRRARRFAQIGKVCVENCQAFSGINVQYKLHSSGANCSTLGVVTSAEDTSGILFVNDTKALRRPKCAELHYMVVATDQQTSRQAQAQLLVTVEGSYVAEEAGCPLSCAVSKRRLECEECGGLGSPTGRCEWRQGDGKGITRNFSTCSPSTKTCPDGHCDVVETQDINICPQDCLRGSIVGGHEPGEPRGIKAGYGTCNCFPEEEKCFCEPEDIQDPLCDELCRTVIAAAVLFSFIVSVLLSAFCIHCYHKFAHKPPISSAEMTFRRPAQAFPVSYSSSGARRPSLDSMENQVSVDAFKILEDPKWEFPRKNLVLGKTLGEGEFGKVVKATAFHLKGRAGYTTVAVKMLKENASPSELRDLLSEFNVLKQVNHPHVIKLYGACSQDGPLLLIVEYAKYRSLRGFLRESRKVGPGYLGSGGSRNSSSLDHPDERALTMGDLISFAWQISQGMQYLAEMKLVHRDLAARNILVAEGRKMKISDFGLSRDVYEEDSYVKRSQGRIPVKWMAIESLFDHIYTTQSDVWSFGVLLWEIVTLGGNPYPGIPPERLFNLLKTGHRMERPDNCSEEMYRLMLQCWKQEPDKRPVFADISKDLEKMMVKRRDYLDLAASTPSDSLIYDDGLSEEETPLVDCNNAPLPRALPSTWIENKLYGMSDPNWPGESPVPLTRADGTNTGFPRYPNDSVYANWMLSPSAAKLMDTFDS
- measurement description: HTRF KinEASE-TK kinase activity test, RET G810R
- setup conditions: read-out: RET G810R IC50; HTRF kinase assay

| smiles text | tested system | IC50 [nM] |
| --- | --- | --- |
| COc1ccc(CN2C3CC2CN(c2ccc(-c4cc(C#N)cn5nc6[nH]ncc6c45)cn2)C3)cn1 | RET G810R (Homo sapiens (Human), UniProt P07949, G810R) | 89 |
| O=C(N[C@H]1CCN(c2ccc(-c3cc(OCC(F)F)cn4nc5[nH]ncc5c34)cn2)C[C@H]1O)c1c(F)cccc1F | RET G810R (Homo sapiens (Human), UniProt P07949, G810R) | 2.8 |
| O=C(N[C@H]1CCN(c2ccc(-c3cc(OCCF)cn4nc5[nH]ncc5c34)cn2)C[C@@H]1O)c1c(F)cccc1F | RET G810R (Homo sapiens (Human), UniProt P07949, G810R) | 2.1 |
| CCOc1cc(-c2ccc(N3CC[C@H](NC(=O)c4c(F)cccc4F)[C@@H](O)C3)nc2)c2c3cn[nH]c3nn2c1 | RET G810R (Homo sapiens (Human), UniProt P07949, G810R) | 4.1 |
| CCOc1cc(-c2ccc(N3CC[C@H](NC(=O)C4(C(F)(F)F)CCC4)[C@H](O)C3)nc2)c2c3cn[nH]c3nn2c1 | RET G810R (Homo sapiens (Human), UniProt P07949, G810R) | 1.5 |
| COc1ccc(CN2C3CC2CN(c2ccc(-c4cc(C(=O)O)cn5nc6[nH]ncc6c45)cn2)C3)cn1 | RET G810R (Homo sapiens (Human), UniProt P07949, G810R) | 33.7 |
| C#CCOc1cc(-c2ccc(N3CC4CC(C3)N4Cc3ccc(OC)nc3)nc2)c2c3cn[nH]c3nn2c1 | RET G810R (Homo sapiens (Human), UniProt P07949, G810R) | 4.01 |

====

Here, each record is paired with measured pIC50 data.
- tested system: RET G810R (Homo sapiens (Human), UniProt P07949, G810R)
- measurement description: HTRF KinEASE-TK kinase activity test, RET G810R
- setup conditions: read-out: RET G810R IC50; HTRF kinase assay
pIC50: −log10 of the molar value.

| molecule | pIC50 |
| --- | --- |
| CCOc1cc(-c2ccc(N3C[C@@H]4C5CCC([C@@H]4C3)N5C(=O)c3c(F)cccc3Cl)nc2)c2c3cn[nH]c3nn2c1 [Compound 180] | 8.01 |
| COc1cc(-c2ccc(N3CC4CC(C3)N4Cc3ccc(OC)nc3)nc2)c2c3cn[nH]c3nn2c1 [Compound 235] | 8.66 |
| CCOc1cc(-c2cnc(N3CC[C@H](NC(=O)c4c(F)cccc4Cl)[C@@H](O)C3)cn2)c2c3cn[nH]c3nn2c1 [Compound 51] | 8.37 |
| CCOc1cc(-c2cnc(N3CCC(C)(NC(=O)c4ncc(F)cc4Cl)CC3)cn2)c2c3cn[nH]c3nn2c1 [Compound 55] | 8.35 |
| CCOc1cc(-c2ccc(N3CCC(CN(C)C)(NC(=O)c4c(F)cccc4F)CC3)nc2)c2c3cn[nH]c3nn2c1 [Compound 234] | 8.80 |
| CCOc1cc(-c2ccc(N3CCC(C)(NC(=O)c4cc(F)ccc4C)CC3)nc2)c2c3cn[nH]c3nn2c1 [Compound 1] | 8.19 |
| CCOc1cc(-c2ccc(N3CCC(Oc4ccccn4)CC3)nc2)c2c3cn[nH]c3nn2c1 [Compound 103] | 7.95 |
| CCOc1cc(-c2ccc(N3CC4COCC(C3)N4Cc3ccc(OC)nc3)nc2)c2c3cn[nH]c3nn2c1 [Compound 114] | 8.44 |
| CCOc1cc(-c2ccc(N3CC[C@H](NC(=O)c4c(C)cccc4Cl)[C@H](O)C3)nc2)c2c3cn[nH]c3nn2c1 [Compound 278] | 9.05 |
| O=C(N[C@H]1CCN(c2ccc(-c3cc(OCC(F)F)cn4nc5[nH]ncc5c34)cn2)C[C@H]1O)c1cc(F)ccc1Cl [Compound 293] | 8.80 |
| O=C(N[C@H]1CCN(c2ccc(-c3cc(OCC(F)F)cn4nc5[nH]ncc5c34)cn2)C[C@H]1O)c1c(F)cccc1Cl [Compound 292] | 8.74 |
| CCOc1cc(-c2ccc(N3CC[C@H](NC(=O)OC(C)(C)C)[C@@H](O)C3)nc2)c2c3cn[nH]c3nn2c1 [Compound 88] | 8.11 |
| CCOc1cc(-c2ccc(N3CCC(O)(CNS(=O)(=O)c4ccccc4)CC3)nc2)c2c3cn[nH]c3nn2c1 [Compound 102] | 8.44 |
| CCOc1cc(-c2ccc(N3CC[C@H](NC(=O)c4ncccc4C(F)(F)F)[C@H](O)C3)nc2)c2c3cn[nH]c3nn2c1 [Compound 284] | 8.38 |

====

IC50 values, listed per item
- tested system: RET G810R (Homo sapiens (Human), UniProt P07949, G810R)
- measurement description: HTRF KinEASE-TK kinase activity test, RET G810R
- setup conditions: read-out: RET G810R IC50; HTRF kinase assay
measure: IC50 (nM)

| compound | value unit | test value |
| --- | --- | --- |
| CCOc1cc(-c2ccc(N3C4CCC3CN(C(=O)c3c(F)cccc3Cl)C4)nc2)c2c3cn[nH]c3nn2c1 | nM | 8.6 |
| CCOc1cc(-c2ccc(N3C[C@@H]4[C@H](C3)[C@@H]4NC(=O)c3c(F)cccc3Cl)nc2)c2c3cn[nH]c3nn2c1 | nM | 8.2 |
| CCOc1cc(-c2ccc(N3CC[C@H](NC(=O)CC(C)C)[C@@H](O)C3)nc2)c2c3cn[nH]c3nn2c1 | nM | 4.2 |
| CCOc1cc(-c2ccc(N3CCN(Cc4ccc(OC)nc4)C(CO)C3)nc2)c2c3cn[nH]c3nn2c1 (stereo not drawn) | nM | 13.5 |
| CCOc1cc(-c2ccc(N3CC4CCC(C3)N4Cc3ccc(OC)nc3)nc2)c2c3cn[nH]c3nn2c1 | nM | 11.4 |
| CCOc1cc(-c2ccc(N3CCN(Cc4ccc(OC)nc4)C(CN(C)C)C3)nc2)c2c3cn[nH]c3nn2c1 (stereo not drawn) | nM | 20.8 |
| CCOc1cc(-c2ccc(N3CC[C@H](NC(=O)C(C)C(C)C)[C@@H](O)C3)nc2)c2c3cn[nH]c3nn2c1 (stereo partly drawn) | nM | 2 |
| CCOc1cc(-c2ccc(N3CC[C@H](NC(=O)c4cc(F)ccc4C)[C@H](O)C3)nc2)c2c3cn[nH]c3nn2c1 | nM | 1.2 |
| C=CC(=O)Oc1cc(-c2ccc(N3CC4CC(C3)N4Cc3ccc(OC)nc3)nc2)c2c3cn[nH]c3nn2c1 | nM | 4.7 |
| CCOc1cc(-c2ccc(N3CC[C@H](NC(=O)c4c(C)cccc4Cl)[C@@H](N)C3)nc2)c2c3cn[nH]c3nn2c1 | nM | 2.9 |
| CCOc1cc(-c2ccc(N3C[C@H]4CN(C(=O)c5c(F)cccc5Cl)C[C@H]4C3)nc2)c2c3cn[nH]c3nn2c1 | nM | 7.7 |
| CCOc1cc(-c2ccc(N3CC[C@H](NC(=O)c4cc(F)ccc4F)[C@H](O)C3)nc2)c2c3cn[nH]c3nn2c1 | nM | 1.8 |
| CCOc1cc(-c2ccc(N3CC[C@H](NC(=O)c4c(F)cccc4Cl)[C@H](O)C3)nc2)c2c3cn[nH]c3nn2c1 | nM | 0.8 |
| CCOc1cc(-c2ccc(N3CC4CCC(C3)N4C(=O)c3c(F)cccc3Cl)nc2)c2c3cn[nH]c3nn2c1 | nM | 14.2 |
| CCOc1cc(-c2ccc(N3CC4COCC(C3)N4C(=O)c3c(F)cccc3Cl)nc2)c2c3cn[nH]c3nn2c1 | nM | 4.8 |
